System: Haemonchus contortus
Test: Anthelmintic activity against Haemonchus contortus McMaster by larvel development assay
Type: functional
Exercise: state measured LD99 for each of the molecules provided.

The molecule identified as CCCCSc1ccc2nc(-c3ccc(OCCOC)cc3)cn2n1 registered its LD99 at 0.26 µM

So, CCCOc1nn2cc(-c3ccc(OCCOC)cc3)nc2c2ccccc12 ? Its LD99 was 0.91 µM

Entry under test: CCCSc1ccc2nc(-c3ccc(OCCOC)cc3)cn2n1 . Its LD99 was 2.36 µM

Short answer for CCc1ccc(-c2cn3nc(OCC4CC4)ccc3n2)cc1 : LD99 was 0.27 µM

Form: molecule = CCCSc1ccc2nc(-c3ccc(OCCOC)c(OC)c3)cn2n1 ; LD99 = 2.17 µM

Measured LD99, CCCOc1ccc2nc(-c3cccc(OC)c3)cn2n1 : 0.81 µM

Documented LD99 of CCCOc1ccc2nc(-c3ccc(OCCOC)cc3)cn2n1 : 0.29 µM

Entry under test: CCOc1ccc2nc(-c3ccc(OCCOC)cc3)cn2n1 . Its LD99 was 1.3 µM

Per the record, COCCOc1ccc(-c2cn3nc(-c4ccsc4)ccc3n2)cc1 has LD99 of 1.96 µM

For record CCCOc1ccc2nc(-c3ccc4c(c3)OCCO4)cn2n1 the listed LD99 is 2.6 µM

Kindly note the recorded LD99 for CCCOc1nn2cc(-c3ccc(OCC)cc3)nc2c2ccccc12 , which is 1.8 µM

GET /value?item= CCCCSc1ccc2nc(-c3ccc(OCCOCC)cc3)cn2n1 &field=LD99 returns 0.59 µM

Measured LD99, CCCOc1nn2cc(-c3ccc(OCC)cc3)nc2cc1C : 0.6 µM

// LD99 value for COCCOc1cccc(-c2nc3ccc(OC(C)C)nn3c2C)c1 : 14.65 µM

molecule CCCOc1nn2cc(-c3ccc(OCCOC)c(OC)c3)nc2cc1C , LD99 observed: 0.32 µM

# LD99 (molecule: COCCOc1ccc(-c2cn3nc(SC(C)C)ccc3n2)cc1 ) is 0.59 µM

// recorded LD99 for CCCOc1ccc2nc(-c3ccc(OCCOC)cc3)c(I)n2n1 : 0.03 µM

Value of LD99 reported for the molecule COCCOc1cccc(-c2nc3ccc(SC(C)C)nn3c2C)c1 is 19.58 µM

Given item CCCOc1ccc2nc(-c3ccc(OC)c(OC)c3)cn2n1 , the value recorded as its LD99 is 4.15 µM

GET /value?item= CCOCCOc1ccc(-c2cn3nc(SCC(C)C)ccc3n2)cc1 &field=LD99 returns 0.87 µM

Origin of the recorded values: ChEMBL document CHEMBL1795204
